Listed here are compounds together with their documented log10 CC50.
# assay.text: Cytotoxicity in African green monkey Vero cells
# Assay type: cell-based
# test.settings: chlorocebus sabaeus
recorded.metric: log10 CC50 (log10 of the value in µg/mL)

INSERT INTO assay_data (compound, value_reported) VALUES
  ('CCO/N=C1/C(=O)N(Cc2cn(CC(=O)N3CCN(c4cc5c(cc4F)c(=O)c(C(=O)O)cn5C4CC4)CC3)nn2)c2ccccc21', 1.81),
  ('NNC(=O)c1ccncc1 [ISONIAZID]', 1.81),
  ('CO[C@H]1/C=C/O[C@@]2(C)Oc3c(C)c(O)c4c(O)c(c(/C=N/N5CCN(C)CC5)c(O)c4c3C2=O)NC(=O)/C(C)=C\C=C\[C@H](C)[C@H](O)[C@@H](C)[C@@H](O)[C@@H](C)[C@H](OC(C)=O)[C@@H]1C [RIFAMPIN]', 2.11),
  ('CO/N=C1/C(=O)N(Cc2cn(CC(=O)N3CCN(c4cc5c(cc4F)c(=O)c(C(=O)O)cn5C4CC4)CC3)nn2)c2c(F)cccc21', 1.51),
  ('CCO/N=C1/C(=O)N(Cc2cn(CC(=O)N3CCN(c4cc5c(cc4F)c(=O)c(C(=O)O)cn5C4CC4)CC3)nn2)c2c(F)cccc21', 1.20),
  ('O=C1C(=O)N(Cc2cn(CC(=O)N3CCN(c4cc5c(cc4F)c(=O)c(C(=O)O)cn5C4CC4)CC3)nn2)c2ccccc21', 1.20),
  ('CO/N=C1/C(=O)N(Cc2cn(CC(=O)N3CCN(c4cc5c(cc4F)c(=O)c(C(=O)O)cn5C4CC4)CC3)nn2)c2ccc(C)cc21', 0.90);
